// reported pIC50 per item
Molecular target: CETP (Homo sapiens)
Experiment: CETP in vitro assay (Amersham kit TRKQ7005; modified protocol in human plasma, [3H]CE-HDL transfer)
Conditions: from plots of % control versus compound concentration
Description: The CETP inhibitory activity of the compounds was determined using a commercially available kit from Amersham Biosciences (Catalog #TRKQ7005). Briefly, 80 μl of human plasma (obtained from normal volunteers), approximately 25 μg/ml (20 μl) of [^3H]CE-HDL (Amersham Biosciences from kit TRKQ7005) and 1 μl of compound dissolved in DMSO was incubated for at least 4 hrs at 37° C. and non-specific transfer was determined by incubating a corresponding plate at 4° C. (blank). […]
Answer as the number alone; pIC50 is minus log10 of concentration in mol/L.

Worked examples, 5 compounds total:
| compound | pIC50 |
| --- | --- |
| OC(CN1c2cccc(-c3cccc(OC(F)(F)F)c3)c2CCC1c1cccc(Cl)c1)C(F)(F)F (stereo not shown) | 6.54 |
| C[C@@H](O)CN1c2cccc(-c3cccc(F)c3)c2CC[C@@H]1c1cccc(OC(F)(F)F)c1 | 6.96 |
| OC(CCl)CN1c2cccc(-c3cccc(OC(F)(F)F)c3)c2CCC1c1cccc(OC(F)(F)F)c1 (stereo not shown) | 6.13 |
| CC(C)C(O)CN1c2cccc(-c3cccc(OC(F)(F)F)c3)c2CCC1c1cccc(OC(F)(F)F)c1 (stereo not shown) | 6.49 |
| CC(C)Oc1cccc(-c2cccc3c2CCC(c2cccc(OC(F)(F)C(F)F)c2)N3CC(O)C(F)(F)F)c1 (stereo not shown) | 6.46 |

Now consider a different compound.
IN: Param request: pIC50 | system CETP (Homo sapiens) | item Oc1cccc(-c2cccc3c2CCC(c2cccc(OC(F)(F)C(F)F)c2)N3CC(O)C(F)(F)F)c1 (stereo not shown)
OUT: 6.64

----------
biological target: CETP (Homo sapiens, UniProt P11597); construct: from tissue; host or cells: human plasma from normal volunteers; assay: CETP in vitro assay (Amersham kit TRKQ7005; modified protocol in human plasma, [3H]CE-HDL transfer); type: biochemical; conditions: 1 μM compound; 1 µM
Sequence (P11597 18-493): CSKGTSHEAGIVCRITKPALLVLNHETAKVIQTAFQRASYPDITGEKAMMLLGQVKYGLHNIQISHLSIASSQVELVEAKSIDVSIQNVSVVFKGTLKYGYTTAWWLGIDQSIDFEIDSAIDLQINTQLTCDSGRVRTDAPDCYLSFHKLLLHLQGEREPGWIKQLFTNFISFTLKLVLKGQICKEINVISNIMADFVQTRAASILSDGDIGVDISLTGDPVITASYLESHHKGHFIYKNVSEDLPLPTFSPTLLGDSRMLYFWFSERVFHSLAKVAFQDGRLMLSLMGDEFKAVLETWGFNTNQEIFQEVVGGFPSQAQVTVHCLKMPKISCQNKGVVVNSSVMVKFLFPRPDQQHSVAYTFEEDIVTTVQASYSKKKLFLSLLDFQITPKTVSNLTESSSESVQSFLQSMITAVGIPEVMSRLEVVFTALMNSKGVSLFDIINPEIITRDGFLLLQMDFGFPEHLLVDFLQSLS
value_type: % Inhibition @ 1 μM (%)
Record the value in %, omitting the unit from your answer.

Worked examples, 10 compounds total:
| compound | % Inhibition @ 1 μM / % |
| --- | --- |
| C[C@@H](O)CN1c2cccc(-c3cccc(F)c3)c2CC[C@@H]1c1cccc(OC(F)(F)C(F)F)c1 [Compound 77] | 48 |
| OC(CN1c2cccc(-c3cccc(OC(F)(F)F)c3)c2CCC1c1cccc(OC(F)(F)F)c1)C(F)(F)F (stereo not shown) [Compound 32] | 34 |
| CCc1cc(Oc2cccc3c2CCC(c2cccc(OC(F)(F)C(F)F)c2)N3CC(O)C(F)(F)F)ccc1Cl (stereo not shown) [Compound 84] | 62 |
| OC(CN1c2cccc(-c3cccnc3)c2CCC1c1cccc(OC(F)(F)C(F)F)c1)C(F)(F)F (stereo not shown) [Compound 76] | 38 |
| OC(CN1c2cccc(-c3ccc(C(F)(F)F)cc3)c2CCC1c1cccc(OC(F)(F)C(F)F)c1)C(F)(F)F (stereo not shown) [Compound 4] | 1 |
| OC(CN1c2cccc(-c3cccc(OC(F)(F)F)c3)c2CCC1c1ccc(OC(F)(F)C(F)F)cc1)C(F)(F)F (stereo not shown) [Compound 21] | 5 |
| OC(CN1c2cccc(-c3ccc(C(F)(F)F)cc3)c2CCC1c1cccc(OC(F)(F)C(F)F)c1)C(F)(F)F (stereo not shown) [Compound 3] | 85 |
| OC(CN1c2cccc(-c3cccc(OC(F)(F)F)c3)c2CCC1C1CCCCC1)C(F)(F)F (stereo not shown) [Compound 38] | 2 |
| O[C@@H](CN1c2cccc(-c3cccc(F)c3)c2CC[C@@H]1c1cccc(OC(F)(F)C(F)F)c1)C(F)(F)F [Compound 82] | 76 |
| COc1cccc(C2CCc3c(-c4cccc(OC(F)(F)F)c4)cccc3N2CC(O)C(F)(F)F)c1 (stereo not shown) [Compound 26] | 4 |

IN: Give the reported value of % Inhibition @ 1 μM for this record: C[C@@H](O)CN1c2cccc(-c3cccc(Cl)c3)c2CC[C@@H]1c1cccc(OC(F)(F)F)c1 [Compound 40]
OUT: 32

IN: Give the reported value of % Inhibition @ 1 μM for this record: OC(CN1c2cccc(-c3ccsc3)c2CCC1c1cccc(OC(F)(F)C(F)F)c1)C(F)(F)F (stereo not shown) [Compound 65]
OUT: 16

IN: Give the reported value of % Inhibition @ 1 μM for this record: OC(CN1c2cccc(-c3cccc(OC(F)(F)F)c3)c2CCC1c1cccc(F)c1)C(F)(F)F (stereo not shown) [Compound 23]
OUT: 33

IN: Give the reported value of % Inhibition @ 1 μM for this record: OC(CN1c2cccc(-c3cccc(OC(F)(F)F)c3)c2CCC1c1ccccc1OC(F)(F)C(F)F)C(F)(F)F (stereo not shown) [Compound 89]
OUT: 9

IN: Give the reported value of % Inhibition @ 1 μM for this record: CC(C)c1cccc(-c2cccc3c2CCC(c2cccc(OC(F)(F)C(F)F)c2)N3CC(O)C(F)(F)F)c1 (stereo not shown) [Compound 67]
OUT: 29

IN: Give the reported value of % Inhibition @ 1 μM for this record: Oc1cccc(-c2cccc3c2CCC(c2cccc(OC(F)(F)C(F)F)c2)N3CC(O)C(F)(F)F)c1 (stereo not shown) [Compound 43]
OUT: 23

----------
target: CETP (Homo sapiens); construct: from tissue; host or cells: human plasma from normal volunteers; assay: CETP in vitro assay (Amersham kit TRKQ7005; modified protocol in human plasma, [3H]CE-HDL transfer); type: biochemical; conditions: 1 μM compound; 1 µM
Label key: MET means % Inhibition @ 1 μM under 20%; NOT MET means % Inhibition @ 1 μM of 20% or more.

Solved entries:
| molecule | qualitative_label |
| --- | --- |
| COc1cccc(-c2cccc3c2CC[C@H](c2cccc(OC(F)(F)C(F)F)c2)N3C[C@H](O)C(F)(F)F)c1 [Compound 83] | NOT MET |
| OC(CN1c2cccc(-c3cccc(OC(F)(F)F)c3)c2CCC1c1cccc(Cl)c1)C(F)(F)F (centres unmarked) [Compound 29] | NOT MET |
| C[C@@H](O)CN1c2cccc(-c3cccc(F)c3)c2CC[C@@H]1c1cccc(OC(F)(F)F)c1 [Compound 55] | NOT MET |

IN: Does the reported % Inhibition @ 1 μM of OC(CN1c2cccc(-c3cccc(OC(F)(F)F)c3)c2CCC1c1cccc(F)c1)C(F)(F)F (centres unmarked) [Compound 24] stay below 20%?
OUT: MET

IN: Does the reported % Inhibition @ 1 μM of OC(CN1c2cccc(-c3cccc(C(F)(F)F)c3)c2CCC1c1cccc(OC(F)(F)C(F)F)c1)C(F)(F)F (centres unmarked) [Compound 14] stay below 20%?
OUT: NOT MET

IN: Does the reported % Inhibition @ 1 μM of OC(CN1c2cccc(-c3cccc(Cl)c3)c2CCC1c1cccc(OC(F)(F)C(F)F)c1)C(F)(F)F (centres unmarked) [Compound 15] stay below 20%?
OUT: NOT MET

IN: Does the reported % Inhibition @ 1 μM of OC(CN1c2cccc(-c3cccc(OC(F)(F)F)c3)c2CCC1c1ccc(OC(F)(F)C(F)F)cc1)C(F)(F)F (centres unmarked) [Compound 22] stay below 20%?
OUT: MET

----------
target: CETP (Homo sapiens); construct: from tissue; host or cells: human plasma from normal volunteers; assay: CETP in vitro assay (Amersham kit TRKQ7005; modified protocol in human plasma, [3H]CE-HDL transfer); assay type: biochemical; conditions: 1 μM compound; read-out: % Inhibition @ 1 μM
// reported inhibition at 1 µM per item
Record the value in %, omitting the unit from your answer.

Worked examples, 5 compounds total:
| compound | inhibition at 1 µM [%] |
| --- | --- |
| O[C@@H](CN1c2cccc(-c3cccc(OC(F)(F)F)c3)c2CC[C@@H]1c1cccc(OC(F)(F)C(F)F)c1)C(F)(F)F [Compound 78] | 85 |
| O[C@@H](CN1c2cccc(-c3cccc(F)c3)c2CC[C@@H]1c1cccc(OC(F)(F)C(F)F)c1)C(F)(F)F [Compound 82] | 84 |
| O=Cc1cccc(-c2cccc3c2CCC(c2cccc(OC(F)(F)C(F)F)c2)N3CC(O)C(F)(F)F)c1 (centres unmarked) [Compound 63] | 39 |
| C[C@@H](O)CN1c2cccc(-c3cccc(Cl)c3)c2CC[C@@H]1c1cccc(OC(F)(F)F)c1 [Compound 40] | 37 |
| OC(CN1c2cccc(-c3cccnc3)c2CCC1c1cccc(OC(F)(F)C(F)F)c1)C(F)(F)F (centres unmarked) [Compound 76] | 57 |

IN: Give the reported value of inhibition at 1 µM for this record: COc1cccc(-c2cccc3c2CC[C@H](c2cccc(OC(F)(F)C(F)F)c2)N3C[C@H](O)C(F)(F)F)c1 [Compound 83]
OUT: 100

IN: Give the reported value of inhibition at 1 µM for this record: C[C@@H](O)CN1c2cccc(-c3cccc(F)c3)c2CC[C@@H]1c1cccc(OC(F)(F)F)c1 [Compound 55]
OUT: 39

IN: Give the reported value of inhibition at 1 µM for this record: C[C@@H](O)CN1c2cccc(-c3cccc(Cl)c3)c2CC[C@H]1c1cccc(OC(F)(F)F)c1 [Compound 41]
OUT: 3

IN: Give the reported value of inhibition at 1 µM for this record: O=C(CN1CCOCC1)N1c2cccc(-c3cccc(OC(F)(F)F)c3)c2CCC1c1cccc(OC(F)(F)F)c1 (centres unmarked) [Compound 88]
OUT: 0

IN: Give the reported value of inhibition at 1 µM for this record: O[C@H](CN1c2cccc(-c3cccc(OC(F)(F)F)c3)c2CC[C@@H]1c1cccc(OC(F)(F)C(F)F)c1)C(F)(F)F [Compound 79]
OUT: 62
